Test system: Euphorbia heterophylla (EPHHL)
METHOD_DESCRIPTION: Post-emergence efficacy, glasshouse
Assay type: in vivo
MEASUREMENT_PARAMETERS: Euphorbia heterophylla, post-emergence, 312 h; Application Rate 1000 g/Ha; evaluated after 13 days; 100=total damage to plant, 0=no damage to plant; read-out: Control of weed species after post-emergence application, EPHHL
As shown below, each of these compounds has a reported pest or weed control at 1000 g/ha value.
OBSERVED_PROPERTY: pest or weed control at 1000 g/ha (%)

INSERT INTO measurements (compound, units_symbol, endpoint_value) VALUES
  ('CONC(=O)c1c[n+](C)nc2ccccc12 [Compound A4, 2,2,2-trifluoroacetate]', '%', 50),
  ('C[n+]1cc(CP(=O)([O-])O)c2ccccc2n1', '%', 20),
  ('CC[n+]1cc(P(=O)([O-])O)c2ccccc2n1', '%', 80),
  ('C[n+]1cc(C(=O)[N-]S(=O)(=O)C(C)(C)C)c2ccccc2n1', '%', 20),
  ('COP(=O)(OC)c1c[n+](CCOS(=O)(=O)[O-])nc2ccccc12', '%', 60),
  ('CCCS(=O)(=O)[N-]C(=O)c1c[n+](C)nc2ccccc12', '%', 80),
  ('C[n+]1cc(CCC(=O)O)c2ccccc2n1', '%', 70),
  ('COCC[n+]1cc(C(=O)[N-]S(C)(=O)=O)c2ccccc2n1', '%', 40),
  ('C[n+]1cc(C(=O)[N-]c2nnn[nH]2)c2ccccc2n1', '%', 20),
  ('CCCP(=O)([O-])c1c[n+](C)nc2ccccc12', '%', 100),
  ('C[n+]1cc(C(=O)[N-]S(=O)(=O)CCC(F)(F)F)c2ccccc2n1', '%', 90),
  ('COC(=O)c1c[n+](C)nc2ccccc12', '%', 70),
  ('O=C(O)c1c[n+](CCOS(=O)(=O)[O-])nc2ccccc12', '%', 30),
  ('CC(C)CP(=O)([O-])c1c[n+](C)nc2ccccc12', '%', 100),
  ('O=P([O-])(O)c1c[n+](CCO)nc2ccccc12', '%', 30),
  ('Cn1nnnc1[N-]C(=O)c1c[n+](C)nc2ccccc12', '%', 30),
  ('C[n+]1cc(C(=O)[N-]S(=O)(=O)c2ccc(F)cc2)c2ccccc2n1', '%', 60),
  ('C[n+]1cc(C(=O)[N-]S(=O)(=O)C2CC2)c2ccccc2n1', '%', 70),
  ('O=P(O)(O)CCCc1c[n+](CCCP(=O)(O)O)nc2ccccc12', '%', 20);
